assay.overview: amyloid nucleation score (Sup35N fusion, yeast selection) (log enrichment); library NNK1; higher = more nucleation; inactive = no reads after selection;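 note: zero at mode of non-aggregating sequences after 7 days selection at 30°C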
Classify as follows. Reported amyloid nucleation score greater than or equal to 0.4: Satisfied. Reported amyloid nucleation score below: Not satisfied.

1) WFWMYGKGKESQSVVNGGGT: Satisfied
2) GIRSLFGGKCWDHGSFMWKF: Not satisfied
3) LSLNSHYCDDCVWLFR: Satisfied
4) LNLWPIDANVGWLWKRWRWR: Not satisfied
5) ICEVSLCYR: Not satisfied
6) CSSKGCLVSESFLHLMTNLC: Satisfied
7) GRMSRMILD: Not satisfied
8) NILMFEMVVRSFIGLTEKFL: Satisfied
9) TLSPTAGPAVVALILYGSLT: Satisfied
10) VGIWLGTGTWGCKGL: Satisfied
11) IIRFWLTSVVIYMSFLCRGR: Not satisfied
12) SLVSPRCSKMMFWGLPGVMM: Not satisfied
13) FDVIGSCVGDQWTAGMDWTL: Satisfied
14) CSLLSAPPVDSLWGTESRLI: Not satisfied
15) MVDFNSRSKYSVYLSHRGKF: Satisfied
16) GGNDHVANLTCNNVAGSRGT: Satisfied
17) AVCQRNLFGIVRICRSKTR: Satisfied
18) EALCSTSEGILHKEWF: Not satisfied
19) GMCIRNRMRDNVNSLSSACD: Not satisfied
20) KLSVGYRFWVLDSDFIVDDY: Not satisfied
21) ISHNQIWVRIGISRLFQHKV: Satisfied
22) VCSCRFLYI: Not satisfied
23) MSLSFAPLAIYPDNIVTDVI: Not satisfied
24) YGQMVIFGPVMLMAVLTW: Satisfied
25) FRGYHSSMSGNGDDNEKFGG: Not satisfied
26) AILVHCSVLTVA: Satisfied

----------
assay.overview: amyloid nucleation score (Sup35N fusion, yeast selection) (log enrichment); library NNK3; higher = more nucleation; inactive = no reads after selection
readout.kind: amyloid nucleation score

1. SFLSYCC: inactive
2. IVYLAVFRWGSMSKSRFGFD: inactive
3. FLDPYSHRLSAKALYM: inactive
4. LRIGNVVCLKLSFSFNRYLW: 0.352
5. GSSYTGTEVVCKLDFSHVFR: 0.92
6. PFMCGRAIRLSFREFTRLKN: inactive
7. RKCCGVLSLSASLHDRDDGC: inactive
8. TFSVRLSYLSRNAICDERVL: 0.33
9. STMWYYMLVVIMRSCRAGDR: 0.793
10. VRVRVHVVVVVKLLKMVGAV: inactive
11. ANVWPISPLSGGVRLWMFGR: inactive
12. NVSPIGQISVNYGRMDCSEG: inactive
13. YIMCCGV: 1.61
14. DCAYMCNVYFLVLGSAKLFI: 1.27
15. RIRALLD: inactive
16. DLRALPKVFLMLDKYSIMSG: inactive
17. FWMMDYMYSVRMNFVWGYIR: inactive
18. MAHAFDTR: inactive
19. VIQIYIMRCLYDYYI: 2.8
20. FVLESFCRPLHSWVAGMGV: inactive
21. SILDCLLKMGFNTILHACWN: inactive
22. MFRVMSSVKLLS: -0.754
23. LPRLFVVDYPSQ: inactive
24. RDEYYRDRLGIVNLSRCSKS: inactive
25. DRQRWSRLCAGQSLYNCGKC: inactive
26. YYVLPASG: inactive
27. VKYYDFCEPGRGYKDIRRL: inactive
28. IPGAVISEYYKSYRSSTIPP: inactive
29. KSSIMKGKLTHRGSQWFASQ: inactive
30. LNLTGVISNLRVVNGQ: inactive
31. WFVYALMNRLEYSKAYFPML: inactive
32. SFIKRVRDSMSRM: inactive
33. GVYYSCAFSTLIKGVNRSTV: inactive
34. LREHWEELVLGFWFPKVCCF: inactive
35. MSFEYSPQGSILYGPSRNIY: inactive
36. LSYNTVDVWPLAFNFWWMIS: 0.199
37. RACARVLLEVCFLFEFSMST: inactive
38. RSSSASR: inactive
39. VCSDGLNWGHGVRMLWY: inactive
40. FSCIMVRCYFR: inactive
41. STDQSASRVSERQLLCLPLT: inactive
42. SFYMPTQKLMLFIVVKVKAT: inactive
43. PMGNRAWFPFLYEDQKPRIS: inactive
44. LYMVSYG: inactive
45. FRNCRSWATCTAKARLHCPS: 0.812
46. PQMQAISSHVCLWG: inactive
47. IFVLDASMVMSFYVSVDASS: 0.989
48. KDALISYFYYDCMHCPQASR: inactive
49. SEARCA: inactive
50. CASPSGFSSQGVTWFVEV: inactive
51. LLNDCYIRNKGLPHDERVWG: inactive
52. FVRTLCCLAYVWHYDLRYC: 0.406
53. VRWQYVYMPPA: inactive
54. GLCNTYCFHHCFRWVR: 0.769
55. VREFYN: inactive
56. SSEKLMQGFKVRLVCHFLAR: inactive
57. RNVTRGYYMYFKRMVRHYWG: inactive
58. WLSNREVFKMYIRLVQLAWL: inactive
59. LSRDGVFVPPTSRSYHPRLK: inactive
60. CIGGWDIKGKQ: inactive
61. DSWTAACAHSR: inactive
62. FMTFPRASADRDFFSRVLHL: inactive
63. HWYGTMLKLFNVLKPMGPKI: inactive
64. DGVLSVGSLCNDRFVLEMYG: -0.432
65. WDDEFVWSGINN: inactive

----------
assay.overview: amyloid nucleation score (Sup35N fusion, yeast selection) (log enrichment); library NNK2; higher = more nucleation; inactive = no reads after selection
Classify as follows. Reported amyloid nucleation score greater than or equal to 0.3: 1 (yes). Reported amyloid nucleation score below: 0 (no).

1) TLHNYCYPMIRSCGQSPGRF: 0 (no)
2) MASAVNCESCISSGRVRFSG: 1 (yes)
3) FSEFIYLCTSLMDARQGMVP: 0 (no)
4) TCYMVWSLYC: 1 (yes)

----------
assay.overview: amyloid nucleation score (Sup35N fusion, yeast selection) (log enrichment); library NNK3; higher = more nucleation; inactive = no reads after selection
readout.kind: amyloid nucleation score

1) YFRFRSFLVLSDM: inactive
2) TGVDILIPFFSPSGT: inactive
3) HSFREYKRVNLYYPFYKDCL: 0.467
4) HYSAREWLLLCIMVCDVVVW: inactive
5) AFAMRMTCSGLVNICHFAWL: 0.287
6) RNSMGVILKVCLGRN: 1.66
7) SAGWMSTKVSVQLTNYPGLA: 1.33
8) RVRVYYGQDWYYKMLLARTI: -0.379
9) WQIWDRVQTRKFHGEFTYMR: inactive
10) STNWMVRLFYSRIEWGVNLG: inactive
11) FCFYRKKGVVGCILFYACFR: inactive
12) VVYYFKMLMGVTLYSMVIWQ: inactive
13) QANFYPN: inactive
14) VFLGCYSSYIVIWDARAPG: 1.96
15) CMVLRYVTVVSGMSQAKRMY: inactive
16) LTCSWIICLSMSYLTSRYNR: 1.83
17) AIVFNFDYLLYLQNRSNLMH: inactive
18) PWIGVNINSSVLVMVFGGGM: 1.97
19) RFFVNL: inactive
20) VYLDFKGWFVMLSINLNQFY: inactive
21) VKTWCYRCCSGALSLS: inactive
22) FPIWLLDCKEDCVLSDVAAS: inactive
23) SSAIMCWRFMLMNSILITTP: inactive
24) HMDSWSYWVIVV: inactive
25) YGVYISIFILCWNGGNNDDC: inactive
26) GWNILLNLNIEYSTLYIVNL: 2.44

----------
assay.overview: amyloid nucleation score (Sup35N fusion, yeast selection) (log enrichment); library NNK2; higher = more nucleation; inactive = no reads after selection
In this section, each of the substances is paired with its reported amyloid nucleation score.
readout.kind: amyloid nucleation score

1) LSHRNPASRNYRPWQLNC: 0.245
2) NYIESFMHSQGCNPFQDSFM: 3
3) HHFTFQAAYFRNIPLESADE: 0.906
4) WHENMSGTPKLASTNNGSKR: 2.61
5) PSRYAVLLCFGGVDTNVGIT: 4.97
6) WFSECCSMASIGHSDTMDGS: -0.567
7) RVIILNTNDGSVEDMYVESQ: 3.98
8) YVKVRWCGTSPCNEFLRSSY: 0.429

----------
assay.overview: amyloid nucleation score (Sup35N fusion, yeast selection) (log enrichment); library NNK1; higher = more nucleation; inactive = no reads after selection
Classify as follows. Reported amyloid nucleation score greater than or equal to -0.4: y. Reported amyloid nucleation score below: n.

1. KSEYWHSCYVANSPYDYRTV: n
2. LALHEWLWLFDTFH: y
3. TGTSSPMRPLH: y
4. TPRYVLLVC: n
5. GGTSRLQDVDAALTGTWVSP: y
6. KLDNCGCGRGCEQLDVVQSQ: y
7. TYFSDLVRRRRCKAGNVWFL: y
8. SDNTMSPKLCLMASWVRIST: y
9. AVNYIADFGTVDRCCITFPL: y
10. GFTYTC: n
11. PSNLRDWHSSQFNREEEDAY: y
12. WKFLFVVFIYSNYVVGLLDN: n
